FYI, the data here is from patent US20160287589A1.

- Tgt: MKNK1 (Homo sapiens, UniProt Q9BUB5, T385D)
- Construct: GST (N); purchased Carna Biosciences 02-145; host or cells: insect cells (baculovirus expression system)
- Sequence (Q9BUB5 1-424 isoform Q9BUB5-2 T344D): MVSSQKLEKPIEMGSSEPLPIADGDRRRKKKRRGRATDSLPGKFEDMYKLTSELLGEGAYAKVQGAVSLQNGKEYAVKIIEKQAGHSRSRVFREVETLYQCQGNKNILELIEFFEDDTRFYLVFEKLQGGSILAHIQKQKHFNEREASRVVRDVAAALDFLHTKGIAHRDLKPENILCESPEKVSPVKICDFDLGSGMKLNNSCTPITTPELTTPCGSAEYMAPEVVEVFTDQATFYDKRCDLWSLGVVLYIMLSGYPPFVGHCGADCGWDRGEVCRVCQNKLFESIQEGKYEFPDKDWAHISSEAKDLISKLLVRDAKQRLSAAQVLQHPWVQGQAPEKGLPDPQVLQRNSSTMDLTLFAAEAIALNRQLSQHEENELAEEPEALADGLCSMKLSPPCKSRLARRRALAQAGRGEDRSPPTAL
- Protocol notes: MKNK1 kinase assay (MKNK1 TR-FRET assay)
- Type: biochemical
- Run parameters: Table 1a; 10 μM ATP, 15 min preincubation
Property label: IC50 (nM)
Give the quantity in nM, number only.

Guide cases for IC50, answers given:
{"Sample smiles": "O=C(c1ccon1)N1CCC[C@H]1CCOc1ccc2ncc(-c3cc4ccccc4o3)n2n1", "IC50 [nM]": 2.1}
{"Sample smiles": "O=C(c1cnoc1)N1CCC[C@H]1CCOc1ccc2ncc(-c3cc4ccccc4o3)n2n1", "IC50 [nM]": 1.3}
{"Sample smiles": "O=C(NCCOc1ccc2ncc(-c3cc4ccccc4o3)n2n1)C1CCOCC1", "IC50 [nM]": 7.3}

Next, consider the following compound.
Documented IC50 of O=C(N[C@H]1C[C@H](Oc2ccc3ncc(-c4cc5ccccc5o4)n3n2)C1)C1CC1 : 5.3
